The measurements presented in this section are drawn from ChEMBL document CHEMBL1140759.

Tested on: Toxoplasma gondii
ASSAY: Antiparasitic activity against Toxoplasma gondii infected african green monkey Vero cells at 2 mM assessed as infected cells
Type: functional
# Activity >= 20% gives label 1, anything below gives label 0

[[record]]
compound = "COc1ccc(/C=N/N=C2\\SC(CC(=O)O)C(=O)N2c2ccccc2)cc1 (stereo unspecified)"
class_label = "label 0"

[[record]]
compound = "S=C(N/N=C/c1cccc(Cl)c1)Nc1ccccc1"
class_label = "label 1"

[[record]]
compound = "COc1cccc(/C=N/NC(=S)Nc2ccccc2)c1"
class_label = "label 1"

[[record]]
compound = "O=C(O)CC1S/C(=N\\N=C\\c2ccccc2F)N(c2ccccc2)C1=O (stereo unspecified)"
class_label = "label 0"

[[record]]
compound = "O=C(O)CC1S/C(=N\\N=C\\c2ccc(F)cc2)N(c2ccccc2)C1=O (stereo unspecified)"
class_label = "label 0"

[[record]]
compound = "COc1ccc(/C=N/N=C2\\SC(CC(=O)O)C(=O)N2c2ccccc2)c(OC)c1 (stereo unspecified)"
class_label = "label 1"


* * *

Tested on: Mycolicibacterium smegmatis
ASSAY: Antimicrobial activity against Mycobacterium smegmatis at 300 ug/disc
Format: functional
ASSAY CONDITIONS: read-out: IZ
Known zone of inhibition at 300 µg/disc of a selection of compounds
OBSERVATION TYPE: zone of inhibition at 300 µg/disc

[[record]]
compound = "CN(C)c1ccc(/C=N/N=C2\\SC(CC(=O)O)C(=O)N2c2ccccc2)cc1 (stereo not given)"
recorded_value = "< 7 mm"

[[record]]
compound = "O=C(O)CC1S/C(=N\\N=C\\c2ccc(Cl)c(Cl)c2)N(c2ccccc2)C1=O (stereo not given)"
recorded_value = "13 mm"

[[record]]
compound = "O=C(O)CC1S/C(=N\\N=C\\c2ccc(Cl)cc2)N(c2ccccc2)C1=O (stereo not given)"
recorded_value = "15 mm"

[[record]]
compound = "COc1cccc(/C=N/N=C2\\SC(CC(=O)O)C(=O)N2c2ccccc2)c1 (stereo not given)"
recorded_value = "< 7 mm"

[[record]]
compound = "O=C(O)CC1S/C(=N\\N=C\\c2ccccc2F)N(c2ccccc2)C1=O (stereo not given)"
recorded_value = "13 mm"

[[record]]
compound = "COc1ccc(/C=N/N=C2\\SC(CC(=O)O)C(=O)N2c2ccccc2)cc1 (stereo not given)"
recorded_value = "< 7 mm"

[[record]]
compound = "O=C(O)CC1S/C(=N\\N=C\\c2ccc(Cl)cc2Cl)N(c2ccccc2)C1=O (stereo not given)"
recorded_value = "16 mm"

[[record]]
compound = "O=C(O)CC1S/C(=N\\N=C\\c2ccc(F)cc2)N(c2ccccc2)C1=O (stereo not given)"
recorded_value = "12 mm"

[[record]]
compound = "COc1cc(/C=N/N=C2\\SC(CC(=O)O)C(=O)N2c2ccccc2)ccc1O (stereo not given)"
recorded_value = "< 7 mm"

[[record]]
compound = "Cc1ccc(/C=N/N=C2\\SC(CC(=O)O)C(=O)N2c2ccccc2)cc1 (stereo not given)"
recorded_value = "< 7 mm"


* * *

System: Toxoplasma gondii
ASSAY: Antiparasitic activity against Toxoplasma gondii infected african green monkey Vero cells at 2 mM assessed as infected cells
Format: functional
Known Activity of a selection of compounds
OBSERVATION TYPE: Activity (%)

[[record]]
compound = "Nc1ccc(S(=O)(=O)Nc2ncccn2)cc1"
observation_type = "Activity"
recorded_value = 48.71

[[record]]
compound = "CN(C)c1ccc(/C=N/NC(=S)Nc2ccccc2)cc1"
observation_type = "Activity"
recorded_value = 35.81

[[record]]
compound = "Cc1cccc(/C=N/NC(=S)Nc2ccccc2)c1"
observation_type = "Activity"
recorded_value = 39.82

[[record]]
compound = "O=C(O)CC1S/C(=N\\N=C\\c2ccc(Cl)c(Cl)c2)N(c2ccccc2)C1=O (configuration not stated)"
observation_type = "Activity"
recorded_value = 0

[[record]]
compound = "COc1ccc(/C=N/NC(=S)Nc2ccccc2)cc1"
observation_type = "Activity"
recorded_value = 29.39

[[record]]
compound = "O=C(O)CC1S/C(=N\\N=C\\c2ccc(Cl)cc2)N(c2ccccc2)C1=O (configuration not stated)"
observation_type = "Activity"
recorded_value = 35.3

[[record]]
compound = "S=C(N/N=C/c1ccc(Cl)c(Cl)c1)Nc1ccccc1"
observation_type = "Activity"
recorded_value = 38.02

[[record]]
compound = "Cc1ccc(/C=N/N=C2\\SC(CC(=O)O)C(=O)N2c2ccccc2)cc1 (configuration not stated)"
observation_type = "Activity"
recorded_value = 1.23

[[record]]
compound = "Cc1cccc(/C=N/N=C2\\SC(CC(=O)O)C(=O)N2c2ccccc2)c1 (configuration not stated)"
observation_type = "Activity"
recorded_value = 15.54

[[record]]
compound = "COc1cc(/C=N/NC(=S)Nc2ccccc2)ccc1O"
observation_type = "Activity"
recorded_value = 19.7

[[record]]
compound = "CC(C)(C)c1cc(/C=N/N=C2\\SC(CC(=O)O)C(=O)N2c2ccccc2)cc(C(C)(C)C)c1O (configuration not stated)"
observation_type = "Activity"
recorded_value = 0

[[record]]
compound = "S=C(N/N=C/c1ccc(Cl)cc1)Nc1ccccc1"
observation_type = "Activity"
recorded_value = 34.8

[[record]]
compound = "Fc1ccc(/C=N/NC(=S)Nc2ccccc2)cc1"
observation_type = "Activity"
recorded_value = 35.2

[[record]]
compound = "O=C(O)CC1S/C(=N\\N=C\\c2cccc(Cl)c2)N(c2ccccc2)C1=O (configuration not stated)"
observation_type = "Activity"
recorded_value = 34.8

[[record]]
compound = "NC(=O)NO [HYDROXYUREA]"
observation_type = "Activity"
recorded_value = 22.78

[[record]]
compound = "O=C(O)CC1S/C(=N\\N=C\\c2ccccc2)N(c2ccccc2)C1=O (configuration not stated)"
observation_type = "Activity"
recorded_value = 48.5

[[record]]
compound = "O=C(O)CC1S/C(=N\\N=C\\c2ccc(Cl)cc2Cl)N(c2ccccc2)C1=O (configuration not stated)"
observation_type = "Activity"
recorded_value = 18.08

